pIC50: −log10 of the molar value.
pIC50, Methionine aminopeptidase 2 (Homo sapiens, UniProt P50579), per-entry values.
recorded metric: pIC50

1. Oc1cccc2cccnc12 [OXYQUINOLINE]: 5.25
2. O=S(=O)(Nc1cccc2cccnc12)c1ccccc1: 4.40
3. O=C(Oc1cccc2cccnc12)c1ccccc1 [BENZOXIQUINE]: 4.46
4. O=C(Nc1nccs1)c1ccccn1: 4.59

* * *

assay: Inhibition of Escherichia coli MetAP
pIC50: −log10 of the molar value.
recorded metric: pIC50

1) Clc1ccc2nc(-c3ccccn3)[nH]c2c1: 5.77
2) CC(C)(C)c1ccc2[nH]c(-c3ccccn3)nc2c1: 5.59
3) Cc1ccc2nc(-c3ccccn3)[nH]c2c1: 5.68
4) Cc1cc(NC(=O)c2ccccn2)no1: 5.55
5) c1ccc(-c2nc3c[nH]cnc-3n2)nc1: 6.42
6) c1ccc(Cn2c(-c3ccccn3)nc3ccccc32)cc1: 6.00
7) c1cnc2nc(-c3nccs3)[nH]c2c1: 7.10
8) Clc1ccc2[nH]c(-c3cscn3)nc2c1: 5.28
9) N/C(S)=N/c1nc2ccccc2[nH]1: 5.05
10) c1ccc2[nH]c(-c3cnccn3)nc2c1: 5.34
11) Oc1cccnc1-c1nc2ccccc2[nH]1: 6.11
12) c1ccc(-c2nc3ccc[nH]c-3n2)nc1: 6.96
13) O=S(=O)(Nc1cccc2cccnc12)c1ccccc1: 4.96
14) c1ccc(-c2nc3ncc[nH]c-3n2)nc1: 6.62

* * *

IC50, Methionine aminopeptidase 1 (Homo sapiens), per-entry values.
recorded metric: IC50

1. c1cc2nc(-c3cscn3)[nH]c2cn1: 19 µM
2. Oc1cccc2cccnc12 [OXYQUINOLINE]: 21.5 µM
3. O=[N+]([O-])c1ccc2nc(-c3cscn3)[nH]c2c1: 48.5 µM

* * *

tested on: Staphylococcus aureus; assay: Inhibition of Staphylococcus aureus MetAP at 25 uM
Activity calls are given as the source filed them. No cut-off for these calls is given here.
recorded metric: inhibition

1) O=[N+]([O-])c1ccc2[nH]c(-c3ccccn3)nc2c1: inactive
2) c1ccc(-c2nc3c[nH]cnc-3n2)nc1: 18%
3) c1cncc(-c2nc3ccccc3[nH]2)c1: 20%
4) Nc1ccc2[nH]c(-c3ccccn3)nc2c1: 92%
5) c1ccc2[nH]c(Nc3nccs3)nc2c1: 52%
6) Cc1ccc(S(=O)(=O)Oc2cccc3cccnc23)cc1: inactive
7) c1ccc(-c2nc3ncc[nH]c-3n2)nc1: 51%
8) O=C(Nc1cccc2cccnc12)c1ccccc1: inactive
9) Cc1cc(NS(=O)(=O)c2ccccn2)no1: inactive
10) CC(C)(C)c1ccc2[nH]c(-c3cscn3)nc2c1: 30.2%
11) Cc1cc2nc(-c3ccccn3)[nH]c2cc1C: 87%
12) Cc1cc(NC(=O)c2ccccn2)no1: 20%
13) c1ccc2[nH]c(-c3cnccn3)nc2c1: inactive

* * *

test system: Staphylococcus aureus; test: Inhibition of Staphylococcus aureus MetAP at 25 uM
Active and inactive are the calls of the source. The calls are words filed in the database; no cut-off is given here.
recorded metric: inhibition

1) c1ccc(Cn2c(-c3ccccn3)nc3ccccc32)cc1: inactive
2) COC(=O)Nc1nc2cc(Sc3ccccc3)ccc2[nH]1: 12.5%
3) c1ccc(-c2nc3cc[nH]cc-3n2)nc1: 55%
4) Oc1cccnc1-c1nc2ccccc2[nH]1: 97%
5) Cc1cc2nc(-c3cscn3)[nH]c2cc1C: 17%
6) c1cnc2nc(-c3nccs3)[nH]c2c1: 21%
7) N/C(S)=N/c1nc2ccccc2[nH]1: 31%
8) c1ccc2[nH]c(-c3cscn3)nc2c1: 28%
9) COC(=O)Nc1nc2ccccc2[nH]1: inactive
10) O=C(Nc1nccs1)c1ccccn1: 58%
11) c1cc2[nH]c(-c3cscn3)nc2cn1: 32%
12) Clc1ccc2[nH]c(-c3cscn3)nc2c1: 15%
13) COC(=O)Nc1nc2cc(C(=O)c3ccccc3)ccc2[nH]1: inactive
14) CC(C)(C)c1ccc2[nH]c(-c3ccccn3)nc2c1: 40.9%
15) c1ccc(-c2nc3ccccc3[nH]2)nc1: 56%
16) c1coc(-c2nc3ccccc3[nH]2)c1: 10%
17) Nc1ccc2[nH]c(-c3cscn3)nc2c1: 92%
18) O=S(=O)(Oc1cccc2cccnc12)c1ccccn1: inactive
19) CCCSc1ccc2[nH]c(NC(=O)OC)nc2c1: 10.5%
